target: α-glucosidase (Saccharomyces cerevisiae)
Sequence (P53341 whole entry): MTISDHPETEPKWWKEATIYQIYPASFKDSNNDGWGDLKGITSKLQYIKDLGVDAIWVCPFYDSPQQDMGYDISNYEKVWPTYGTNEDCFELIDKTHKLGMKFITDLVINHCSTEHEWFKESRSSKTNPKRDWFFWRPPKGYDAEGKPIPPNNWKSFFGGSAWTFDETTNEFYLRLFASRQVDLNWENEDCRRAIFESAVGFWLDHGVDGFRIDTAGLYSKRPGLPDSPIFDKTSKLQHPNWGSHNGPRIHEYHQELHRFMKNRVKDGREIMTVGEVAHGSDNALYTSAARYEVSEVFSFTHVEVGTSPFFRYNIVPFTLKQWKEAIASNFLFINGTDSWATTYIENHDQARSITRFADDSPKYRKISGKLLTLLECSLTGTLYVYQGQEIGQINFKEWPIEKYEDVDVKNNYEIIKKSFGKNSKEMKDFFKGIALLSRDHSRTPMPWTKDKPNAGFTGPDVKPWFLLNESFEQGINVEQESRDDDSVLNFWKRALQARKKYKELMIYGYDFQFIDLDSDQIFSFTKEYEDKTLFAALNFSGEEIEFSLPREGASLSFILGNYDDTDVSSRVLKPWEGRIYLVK
parameter: IC50
Report as: number unit

What measured IC50 is associated with CCCC(=O)c1c(O)cc(O)c(Cc2c(O)c(CC3=C(O)C(C)(C)C(O)=C(C(C)=O)C3=O)c(O)c(C(=O)CCC)c2O)c1O on α-glucosidase (Saccharomyces cerevisiae)?
34 µM

Hello, the source for this data is paper PMC10145310, in case you need it.
